System: A498 complex spheroids with HUVEC/MSC, growth
assay: Anticancer human tumor A498 cell line growth inhibition [AhR];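 note: luminescence signal used as a surrogate for viable cells; seven day exposure starting three days after spheroid seeding; luminescence viability scaled so 100% equals DMSO vehicle wells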
condition-notes: second compound 0.316 µM; first compound 3.16 µM; hits give low values
Define the label as yes when viability, T/C is strictly less than 50% and as no in all remaining cases.

compound	subject-of-test	category-label
O=C(C=Cc1cccc(S(=O)(=O)Nc2ccccc2)c1)NO + Cc1cncc(-c2nc(NCCc3c[nH]c4ccccc34)c3ncn(C(C)C)c3n2)c1	A498 complex spheroids with HUVEC/MSC, growth	yes
COc1cc(Nc2ncc3c(n2)-c2ccc(Cl)cc2C(c2c(F)cccc2OC)=NC3)ccc1C(=O)O + Cc1ccccc1N=Nc1ccc(NC(=O)c2ccnn2C)c(C)c1	A498 complex spheroids with HUVEC/MSC, growth	yes
Nc1ccccc1NC(=O)c1ccc(CNC(=O)OCc2cccnc2)cc1 + CC(CO)NC(=O)c1cc(-c2ccc(Cl)cc2)nn(-c2cnn(C)c2)c1=O	A498 complex spheroids with HUVEC/MSC, growth	yes
O=C(c1cc(Cc2n[nH]c(=O)c3ccccc23)ccc1F)N1CCN(C(=O)C2CC2)CC1 + CC(CO)NC(=O)c1cc(-c2ccc(Cl)cc2)nn(-c2cnn(C)c2)c1=O	A498 complex spheroids with HUVEC/MSC, growth	no
CC1(C)CCC(CN2CCN(c3ccc(C(=O)NS(=O)(=O)c4ccc(NCC5CCOCC5)c([N+](=O)[O-])c4)c(Oc4cnc5[nH]ccc5c4)c3)CC2)=C(c2ccc(Cl)cc2)C1 + Cc1cncc(-c2nc(NCCc3c[nH]c4ccccc34)c3ncn(C(C)C)c3n2)c1	A498 complex spheroids with HUVEC/MSC, growth	no

---

Test system: A498 complex spheroids with HUVEC/MSC, growth
assay: Anticancer human tumor A498 cell line growth inhibition [AhR];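 note: luminescence signal used as a surrogate for viable cells; seven day exposure starting three days after spheroid seeding; luminescence viability scaled so 100% equals DMSO vehicle wells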
condition-notes: second compound 1 µM; first compound 0.001 µM; hits give low values
Excerpt: Multicellular complex tumor spheroid response to aryl hydrocarbon receptor antagonists in combination with a variety of drugs and investigational agents in selected tumor cell lines […] Compounds. […] If the clinical Cmax for an agent had not been determined, the highest concentration tested was 10 microM (Table 1). […]
Measured viability, T/C by item
measure-name: viability, T/C (%)

compound	measured
Cn1ncnc1C1c2n[nH]c(=O)c3cc(F)cc(c23)NC1c1ccc(F)cc1 (stereo not drawn) + Cc1cncc(-c2nc(NCCc3c[nH]c4ccccc34)c3ncn(C(C)C)c3n2)c1	98.9
Cn1ncnc1C1c2n[nH]c(=O)c3cc(F)cc(c23)NC1c1ccc(F)cc1 (stereo not drawn) + CC(CO)NC(=O)c1cc(-c2ccc(Cl)cc2)nn(-c2cnn(C)c2)c1=O	95.7
CC[C@@]1(O)C(=O)OCc2c1cc1n(c2=O)Cc2cc3c(CN(C)C)c(O)ccc3nc2-1 + Cc1ccccc1N=Nc1ccc(NC(=O)c2ccnn2C)c(C)c1	92.7

---

Test system: A498 complex spheroids with HUVEC/MSC, growth
assay: Anticancer human tumor A498 cell line growth inhibition [AhR];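 note: luminescence signal used as a surrogate for viable cells; seven day exposure starting three days after spheroid seeding; luminescence viability scaled so 100% equals DMSO vehicle wells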
condition-notes: second compound 3.16 µM; first compound 1 µM; hits give low values
Listed below: viability, T/C values for each entry.
measure-name: viability, T/C (%)

compound	measured
CC1(C)CCC(CN2CCN(c3ccc(C(=O)NS(=O)(=O)c4ccc(NCC5CCOCC5)c([N+](=O)[O-])c4)c(Oc4cnc5[nH]ccc5c4)c3)CC2)=C(c2ccc(Cl)cc2)C1 + Cc1ccccc1N=Nc1ccc(NC(=O)c2ccnn2C)c(C)c1	76.9
O=C(C=Cc1cccc(S(=O)(=O)Nc2ccccc2)c1)NO + CC(CO)NC(=O)c1cc(-c2ccc(Cl)cc2)nn(-c2cnn(C)c2)c1=O	39.6
O=C(c1cc(Cc2n[nH]c(=O)c3ccccc23)ccc1F)N1CCN(C(=O)C2CC2)CC1 + CC(CO)NC(=O)c1cc(-c2ccc(Cl)cc2)nn(-c2cnn(C)c2)c1=O	77.2
